Target: papain (Carica papaya, UniProt P00784)
Sequence (P00784 134-345): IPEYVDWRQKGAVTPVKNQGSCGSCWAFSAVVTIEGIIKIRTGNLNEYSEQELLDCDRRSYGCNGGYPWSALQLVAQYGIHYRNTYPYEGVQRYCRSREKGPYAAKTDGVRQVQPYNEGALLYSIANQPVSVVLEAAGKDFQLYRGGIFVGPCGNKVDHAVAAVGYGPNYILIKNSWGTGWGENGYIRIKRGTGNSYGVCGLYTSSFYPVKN
measuredEndpoint: IC50 (µM)
State just the number; it will be interpreted in µM.

Q: Under papain (Carica papaya, UniProt P00784), report IC50 for "COC(=O)c1cccc2c1C(=O)N([C@@H](CC(C)C)C(=O)NO)C2=O"
A: 8

###

Biological target: thermolysin (Bacillus thermoproteolyticus)
Sequence (P00800 233-548): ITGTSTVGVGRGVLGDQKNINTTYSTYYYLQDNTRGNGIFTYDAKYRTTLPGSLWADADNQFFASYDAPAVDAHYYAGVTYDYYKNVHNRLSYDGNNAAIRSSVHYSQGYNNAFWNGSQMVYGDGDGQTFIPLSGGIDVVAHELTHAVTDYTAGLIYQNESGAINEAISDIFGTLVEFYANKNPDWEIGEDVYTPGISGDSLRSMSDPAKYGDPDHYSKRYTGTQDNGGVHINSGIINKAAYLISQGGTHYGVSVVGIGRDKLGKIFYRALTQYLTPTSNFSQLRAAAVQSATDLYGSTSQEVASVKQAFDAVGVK
measuredEndpoint: pKi
The value called pKi is obtained by taking minus log10 of the concentration in mol/L.

Q: // fetch pKi given entry "COC(=O)c1cccc2c1C(=O)N([C@@H](CC(C)C)C(=O)NO)C2=O"
A: 5.22

###

Target: thrombin (Bos taurus)
Assay: thrombin inhibition assay (Ki, Example 5)
Type: biochemical, bovine plasma
Parameters: Thrombin: N-p-tosyl-Gly-Pro-Arg-pNA (from Sigma) was used at 0.5 mM concentration; from tissue; host or cells: bovine plasma
Description: The reaction progress curves were recorded by reading the plates, typically 60 times with 30 second to 2 minute intervals. Initial rates were determined by unweighted nonlinear least-squares fitting to a first order reaction in GraFit (Erithacus Software Limited, London, England). Seven sequential dilutions were made from the first point for the assay.
measuredEndpoint: pKi
The value called pKi is obtained by taking minus log10 of the concentration in mol/L.

COC(=O)c1c[nH]c(C(=O)[C@H](CCCNC(=N)N)NC(=O)[C@@H]2CCN3CC[C@@](N)(Cc4ccccc4)C(=O)N23)n1
8.27
N=C(N)NC(=O)NC[C@H](NC(=O)[C@@H]1CCN2CC[C@@](N)(Cc3ccccc3)C(=O)N12)C(=O)c1nc2ccccc2s1
8.14
COc1ccc(CCNC(=O)C(=O)[C@H](CCCNC(=N)N)NC(=O)[C@@H]2CCN3CC[C@@](N)(Cc4ccccc4)C(=O)N23)cc1
9.35

Q: // fetch pKi given entry "N=C(N)NCCC[C@H](NC(=O)[C@@H]1CCN2CC[C@@](N)(Cc3ccccc3)C(=O)N12)C(=O)C(=O)NCc1ccccc1"
A: 10.14

Q: // fetch pKi given entry "N=C(N)NCCC[C@H](NC(=O)[C@@H]1CCN2CC[C@@](N)(Cc3ccccc3)C(=O)N12)C(=O)C(=O)NCCc1ccc(Cl)cc1"
A: 9.51
